Would you kindly list Population Mitotic Cells (%) for each of these compounds?
System: HEK-293T
Assay: Multiplex assay against HEK293T
Format: toxicity, cell-based
Settings: human, 24 h, 1 µM, compound concentration 1 uM, replicate 2

Exercise: Give HEK-293T Population Mitotic Cells (%) for the following compound: CN(C)CCOc1ccc(-c2nc(-c3ccncc3)c(-c3ccc4c(c3)CC/C4=N\O)[nH]2)cc1 [SB590885]
Solution: 89%

Exercise: Give HEK-293T Population Mitotic Cells (%) for the following compound: CC(=O)O[C@H]1C(=O)[C@@]2(C)[C@H]([C@H](OC(=O)c3ccccc3)[C@]3(O)C[C@H](OC(=O)[C@H](O)[C@@H](NC(=O)c4ccccc4)c4ccccc4)C(C)=C1C3(C)C)[C@]1(OC(C)=O)CO[C@@H]1C[C@@H]2O [PACLITAXEL]
Solution: 92%

Exercise: Give HEK-293T Population Mitotic Cells (%) for the following compound: CNC(=O)c1cc(Oc2ccc(NC(=O)Nc3cc(C(C)(C)C)nn3-c3ccc4ncccc4c3)c(F)c2)ccn1 [REBASTINIB]
Solution: 96%

Exercise: Give HEK-293T Population Mitotic Cells (%) for the following compound: "COc1ccc(NS(=O)(=O)c2sc3ccc(Cl)cc3c2C)cc1N1CCNCC1.Cl"
Solution: 77%

Exercise: Give HEK-293T Population Mitotic Cells (%) for the following compound: "c1ccc2oc(-c3csc(C4CCN(Cc5nc6ncccc6[nH]5)CC4)n3)cc2c1"
Solution: 84%

Exercise: Give HEK-293T Population Mitotic Cells (%) for the following compound: "Cc1cc2c(cc1N1C(=O)c3cccc4c(CCCO)ccc(c34)C1=O)n(C)c(=O)n2C"
Solution: 86%

Exercise: Give HEK-293T Population Mitotic Cells (%) for the following compound: Cc1nc(Cc2cccc(C(F)(F)F)c2)sc1-c1ccc(C(N)=O)nc1 [TP-024n]
Solution: 80%
